Target: human AXL (473-end) (Homo sapiens)
Construct: human AXL (473-end); purchased SignalChem, Canada
Sequence (P30530 473-894 limits assumed): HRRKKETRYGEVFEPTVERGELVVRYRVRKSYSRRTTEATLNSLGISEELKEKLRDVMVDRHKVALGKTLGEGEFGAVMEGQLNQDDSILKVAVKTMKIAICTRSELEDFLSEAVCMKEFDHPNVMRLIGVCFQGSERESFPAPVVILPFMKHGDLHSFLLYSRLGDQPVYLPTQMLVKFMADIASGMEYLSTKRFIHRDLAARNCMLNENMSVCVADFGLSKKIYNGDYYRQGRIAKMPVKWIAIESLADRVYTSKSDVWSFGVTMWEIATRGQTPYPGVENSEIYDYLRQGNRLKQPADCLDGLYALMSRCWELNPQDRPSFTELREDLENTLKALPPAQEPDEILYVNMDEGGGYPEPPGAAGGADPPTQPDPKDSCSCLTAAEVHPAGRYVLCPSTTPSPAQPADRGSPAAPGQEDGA
Assay: HTRF kinase activity biochemical assay, AXL
Details: 10 μM ATP, 30 minutes pre-incubation
Overview of recorded IC50 for various compounds

Use the examples below as a reference point.
C=C(C)c1cnc(N)c(C(=O)N[C@H]2CCC[C@@H]2OCc2ccc(-c3ccc4c(c3)C(C)(C)CN4C3CCN(CCO)CC3)cc2)c1: < 10 nM
Cn1cc(-c2cnc(N)c(C(=O)N[C@H]3CCC[C@@H]3OCc3ccc(-c4ccc5c(c4)CCC[C@@H]5N4CCNCC4)cc3)c2)cn1: < 10 nM

Supply measured IC50 of Cn1ccc(-c2cnc(N)c(C(=O)N[C@H]3CCC[C@@H]3OCc3ccc(-c4ccc5c(c4)CC[C@@H]5N4CCN(CC(O)CO)CC4)cc3)c2)cc1=O (stereo partly drawn) in your reply. < 10 nM

---

Target: human TYRO3 (455-end) (Homo sapiens)
Construct: TYRO3 (455-end); purchased SignalChem, Canada
Sequence (Q06418 455-890 limits assumed): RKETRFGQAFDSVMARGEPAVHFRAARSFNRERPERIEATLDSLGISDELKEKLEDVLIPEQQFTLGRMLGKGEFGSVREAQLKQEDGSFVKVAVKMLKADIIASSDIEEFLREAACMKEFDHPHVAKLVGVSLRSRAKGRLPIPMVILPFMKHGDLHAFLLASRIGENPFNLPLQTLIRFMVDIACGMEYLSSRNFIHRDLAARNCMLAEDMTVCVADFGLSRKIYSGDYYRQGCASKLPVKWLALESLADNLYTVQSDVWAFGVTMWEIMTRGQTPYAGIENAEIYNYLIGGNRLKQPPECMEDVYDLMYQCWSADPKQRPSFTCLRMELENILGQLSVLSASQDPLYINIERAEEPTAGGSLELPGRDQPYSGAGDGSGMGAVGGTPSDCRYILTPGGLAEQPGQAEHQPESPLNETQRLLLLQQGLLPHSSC
Assay: HTRF kinase activity biochemical assay, TYRO3
Conditions: 10 μM ATP, 30 minutes pre-incubation; read-out: HTRF TYRO IC50
MEASURED_PARAMETER: IC50

State its IC50: CC1(C)CN(C2CCN(CCO)CC2)c2ccc(-c3ccc(CO[C@H]4COC[C@@H]4NC(=O)c4cc(-c5cncc(F)c5)cnc4N)cc3)cc21 100 to 1000 nM

Name the recorded IC50 of the compound listed here: CN(C)CC(=O)N1CCc2cc(-c3ccc(CO[C@H]4CCC[C@@H]4NC(=O)c4cc(-c5cnn(C)c5)cnc4N)cc3)ccc21 > 1000 nM

Look up IC50 of COc1ccc(-c2cnc(N)c(C(=O)N[C@H]3CCC[C@@H]3OCc3ccc(-c4ccc5c(c4)CC[C@@H]5N4CCN(CCO)CC4)cc3)c2)cn1 and report it. 10 to 100 nM

---

Target: human TYRO3 (455-end) (Homo sapiens, UniProt Q06418)
Construct: TYRO3 (455-end); purchased SignalChem, Canada
Sequence (Q06418 455-890 limits assumed): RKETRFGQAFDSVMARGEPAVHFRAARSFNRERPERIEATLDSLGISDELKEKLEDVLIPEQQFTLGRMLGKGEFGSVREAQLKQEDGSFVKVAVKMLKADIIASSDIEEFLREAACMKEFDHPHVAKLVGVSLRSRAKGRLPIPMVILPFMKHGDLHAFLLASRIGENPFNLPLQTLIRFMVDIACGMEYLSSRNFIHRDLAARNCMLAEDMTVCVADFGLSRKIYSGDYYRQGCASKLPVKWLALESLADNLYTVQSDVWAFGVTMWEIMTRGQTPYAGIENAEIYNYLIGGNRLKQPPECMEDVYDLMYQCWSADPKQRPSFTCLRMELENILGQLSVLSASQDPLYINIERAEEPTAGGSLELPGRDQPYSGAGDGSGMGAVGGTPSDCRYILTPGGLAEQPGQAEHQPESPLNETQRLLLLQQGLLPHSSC
Experiment: HTRF kinase activity biochemical assay, TYRO3
Conditions: 10 μM ATP, 30 minutes pre-incubation; read-out: HTRF TYRO IC50
Procedure: For the SAR (structure-activity relationship) and compound screening, HTRF (Homogeneous Time Resolved Fluorescence) kinase activity assay was employed for all MER, AXL and TYRO3 kinases using Cisbio HTRF® KinEASE™-TK kit (Cisbio, USA). The kit included biotin-labeled TK substrate, streptavidin-XL665, Eu3+-cryptate-labeled TK antibody and HTRF® Detection buffer. […] After 1 hour incubation at room temperature, the fluorescence intensity was measured with Envision[…] plate reader (PerkinElmer, USA). […]
pIC50: −log10 of the molar value.
MEASURED_PARAMETER: pIC50

Please respond with reported pIC50 (system human TYRO3 (455-end) (Homo sapiens, UniProt Q06418)) for Cn1cc(-c2cnc(N)c(C(=O)N[C@H]3CCC[C@@H]3OCc3ccc(-c4ccc5c(c4)C(C)(C)CN5C4CCN(CC(N)=O)CC4)cc3)c2)cn1 . 6.00 to 7.00

Fill in: pIC50 on human TYRO3 (455-end) (Homo sapiens, UniProt Q06418), entry Cc1cn(C2CCN(CCO)CC2)c2ncc(-c3ccc(CO[C@H]4CCC[C@@H]4NC(=O)c4cc(-c5cnn(C)c5)cnc4N)cc3)cc12 6.00 to 7.00

Report value: pIC50, system: human TYRO3 (455-end) (Homo sapiens, UniProt Q06418), compound: CN1CCN(C2CC(C)(C)c3cc(-c4ccc(CO[C@H]5CCC[C@@H]5NC(=O)c5cc(-c6cccnc6F)cnc5N)cc4)ccc32)CC1 (stereo partly drawn) 7.00 to 8.00

// output pIC50; input Cc1cc2cc(-c3ccc(CO[C@H]4CCC[C@@H]4NC(=O)c4cc(-c5cnn(C)c5)cnc4N)cc3)ccc2[nH]1 ; system human TYRO3 (455-end) (Homo sapiens, UniProt Q06418) < 6.00

Specify pIC50 for CC1(C)C[C@H](N2CCN(C[C@H](O)CO)CC2)c2ccc(-c3ccc(CO[C@H]4CCC[C@@H]4NC(=O)c4cc(-c5cccnc5F)cnc4N)cc3)cc21 , system human TYRO3 (455-end) (Homo sapiens, UniProt Q06418). 7.00 to 8.00

Look up and report measured pIC50 (human TYRO3 (455-end) (Homo sapiens, UniProt Q06418)) for the following compound: Cc1cc(-c2cnc(N)c(C(=O)N[C@H]3CCC[C@@H]3OCc3ccc(-c4ccc5c(c4)CC[C@@H]5N4CCN(CCO)CC4)cc3)c2)sn1 7.00 to 8.00

GET pIC50 | system: human TYRO3 (455-end) (Homo sapiens, UniProt Q06418) | item: Cn1cc(-c2cnc(N)c(C(=O)N[C@H]3CCC[C@@H]3OCc3ccc(-c4ccc5c(ccn5CCC(=O)O)c4)cc3)c2)cn1 < 6.00
